# System: SW480
# EXPERIMENTAL_PROTOCOL: Cytotoxicity against human SW480 cells after 48 hrs by MTT assay
# Type: functional, cell-based
# MEASUREMENT_CONDITIONS: SW480, 48 h
Please respond with reported IC50 for every item in the list.
Give bare numbers, in µM.

molecule="C=C1C(=O)[C@]23[C@H](O)[C@H]1CC[C@H]2[C@@]12[C@H](OCC)O[C@@]3(O)[C@@H](O)[C@@H]1C(C)(C)CC[C@@H]2O (relative stereo)" value_reported=7.8

Continue with the molecule presented below.
Given the molecule CC(=O)O[C@H]1C(=O)[C@@]2(C)[C@H]([C@H](OC(=O)c3ccccc3)[C@]3(O)C[C@H](OC(=O)[C@H](O)[C@@H](NC(=O)c4ccccc4)c4ccccc4)C(C)=C1C3(C)C)[C@]1(OC(C)=O)CO[C@@H]1C[C@@H]2O , what is its reported IC50?
0.04

---

# System: SW480
# EXPERIMENTAL_PROTOCOL: Cytotoxicity against human SW480 cells after 48 hrs by MTT assay
# Format: functional, cell-based
# MEASUREMENT_CONDITIONS: SW480, 48 h
Please respond with reported IC50 for every item in the list.
One number for each entry, in µM.

Previously resolved entries follow.
molecule=C=C1C(=O)[C@]23C[C@H]1CC[C@H]2[C@@]12CO[C@]3(O)[C@@H](O)[C@@H]1C(C)(C)CC[C@@H]2O assay_metric=IC50 value_reported=3.2
molecule="C=C1C(=O)[C@]23[C@H](O)[C@H]1CC[C@H]2[C@@]12[C@@H](OCCCC)O[C@@]3(O)[C@@H](O)[C@@H]1C(C)(C)CC[C@@H]2O (mixture of isomers)" assay_metric=IC50 value_reported=2.8
molecule="C=C1C(=O)[C@]23[C@H](O)[C@H]1CC[C@H]2[C@@]12C(OC)O[C@@]3(O)[C@@H](O)[C@@H]1C(C)(C)CC[C@H]2O (stereo partly specified)" assay_metric=IC50 value_reported=4.1

Each molecule below has a reported value. Please supply its IC50.
1. C=C1[C@H]2C[C@H](O)[C@@H]3[C@](C2)(C(=O)O[C@@H]2CCC(C)(C)[C@H]4[C@H](O)O[C@H](OC)[C@@]432)[C@@H]1OC(C)=O (relative stereo)
2. C=C1C(=O)[C@]23[C@H](O)[C@H]1CC[C@H]2[C@@]12[C@@H](OC)O[C@]3(O)[C@@H](O)[C@@H]1C(C)(C)CC[C@@H]2O

1: 3.3; 2: 9.4

---

Please respond with reported IC50 for every item in the list.
# Test system: HL-60
# EXPERIMENTAL_PROTOCOL: Cytotoxicity against human HL60 cells after 48 hrs by MTT assay
# Type: functional, cell-based
# MEASUREMENT_CONDITIONS: HL-60, 48 h
One number for each entry, in µM.

Previously resolved entries follow.
molecule=C=C1[C@H]2C[C@@H]3OC(=O)[C@@H]4C(C)(C)CC[C@@H]5OC(=O)[C@](C2)([C@@H]1O)[C@@H]3[C@]54C=O assay_metric=IC50 uom=µM value_reported=6.1
molecule="C=C1C(=O)[C@]23[C@H](O)[C@H]1CC[C@H]2[C@@]12[C@H](OCC)O[C@@]3(O)[C@@H](O)[C@@H]1C(C)(C)CC[C@@H]2O (relative stereo)" assay_metric=IC50 uom=µM value_reported=5.9
molecule=C=C1C(=O)[C@]23[C@H](OC(C)=O)[C@H]1C[C@H](OC(C)=O)[C@H]2[C@]12CCCC(C)(C)[C@H]1[C@H](O)[C@]3(O)OC2 assay_metric=IC50 uom=µM value_reported=4.6
molecule="C=C1C(=O)[C@]23[C@H](O)[C@H]1CC[C@H]2[C@@]12[C@@H](OCCCC)O[C@@]3(O)[C@@H](O)[C@@H]1C(C)(C)CC[C@@H]2O (mixture of isomers)" assay_metric=IC50 uom=µM value_reported=1.2
molecule="C=C1[C@H]2C[C@H](O)[C@@H]3[C@](C2)(C(=O)O[C@@H]2CCC(C)(C)[C@H]4[C@H](O)O[C@H](OC)[C@@]432)[C@@H]1OC(C)=O (relative stereo)" assay_metric=IC50 uom=µM value_reported=4.3

Each molecule below has a reported value. Please supply its IC50.
1. C=C1C(=O)[C@]23[C@H](O)[C@H]1CC[C@H]2[C@@]12CO[C@@]3(O)[C@@H](O)[C@@H]1C(C)(C)CC[C@@H]2OC(C)=O
2. C=C1C(=O)[C@@]23[C@@H]4OC(C)(C)O[C@@]25OC[C@]2(CCCC(C)(C)[C@H]2[C@@H]5O)[C@@H]3[C@@H](O)C[C@@H]14
3. C=C1C(=O)[C@]23[C@H](O)[C@H]1CC[C@H]2[C@@]12[C@@H](OC)O[C@]3(O)[C@@H](O)[C@@H]1C(C)(C)CC[C@@H]2O

1. 1.8
2. 1.5
3. 7
